assay: Water solubility
Counter-ions that a name gives are not always drawn.
Would you mind telling me the reported solubility of each entry?

query: Which solubility reading was recorded for the compound O=[N+]([O-])c1nccn1CCCNc1c2c(nc3ccccc13)CCSC2 [S-THNLA-1, hydrochloride] ?
result: ~9.5 mM

query: // returns reported solubility for input Cl.O=[N+]([O-])c1nccn1CCCNc1c2c(nc3ccccc13)CCCC2
result: ~12 mM

query: Quick one: solubility for O=[N+]([O-])c1nccn1CCCNc1c2c(nc3ccccc13)CCC2 [NLCPQ-1, hydrochloride] ?
result: ~11 mM

query: What value of solubility has been reported for the following compound? CN1CCc2nc3ccccc3c(NCCCn3ccnc3[N+](=O)[O-])c2C1 [MeN-THNLA-1, hydrochloride]
result: ~20 mM

----------
Assignment: determine reported IC50 for the given compounds.
system: V79 Chinese hamster lung cells; test: Acute aerobic and hypoxic cytotoxicity (colony formation); format: cell-based; details: Cricetulus griseus, V79, 1 h, V79 cells, hypoxia, 1 hour, 37° C.; 50% inhibition of clonogenicity
Structures can show the parent of a compound that is named as a salt.
Numeric answer only, unit µM assumed.

query: Please report the recorded IC50 for Cl.O=[N+]([O-])c1nccn1CCCNc1c2ccccc2nc2ccccc12 [NLA-1, hydrochloride, reference compound] .
result: 15

query: Please report the recorded IC50 for CN1CCc2nc3ccccc3c(NCCCn3ccnc3[N+](=O)[O-])c2C1 [MeN-THNLA-1, hydrochloride] .
result: 196

query: Look at this compound and give its reported IC50. O=[N+]([O-])c1nccn1CCCNc1c2c(nc3ccccc13)CCC2 [NLCPQ-1, hydrochloride]
result: 22

query: // returns reported IC50 for input O=[N+]([O-])c1nccn1CCCNc1c2c(nc3ccccc13)CCSC2 [S-THNLA-1, hydrochloride]
result: 68

----------
test: Partition coefficient in octanol/water; assay type: physicochemical; conditions: read-out: Partition coefficient in octanol/water: PCo/w (converted)
Where a name gives a salt, the structure may show the parent alone.
Kindly supply the reported logP values for the records listed here.
Give a plain numeric answer without units written out.

query: Returns the measured logP for the input molecule. Input: O=[N+]([O-])c1nccn1CCCNc1c2c(nc3ccccc13)CCC2 [NLCPQ-1, hydrochloride]
result: -0.523

query: logP for Cl.O=[N+]([O-])c1nccn1CCCNc1c2c(nc3ccccc13)CCCC2 [THNLA-1, hydrochloride] ?
result: -0.854

query: What measured logP goes with Cl.O=[N+]([O-])c1nccn1CCCNc1c2ccccc2nc2ccccc12 [NLA-1, hydrochloride, reference compound] ?
result: -1.15

----------
Exercise: state measured IC50 at 1 h for each of the compounds provided.
test: Acute aerobic and hypoxic cytotoxicity (colony formation); type: cell-based, Chinese hamster; settings: chinese hamster, aerobic v79 cells, V79 cells, aerobic, 1 hour, 37° C.; 50% inhibition of clonogenicity
Where a name gives a salt, the structure may show the parent alone.
Value expressed in µM; do not type the unit.

query: Any idea what its IC50 at 1 h is? The compound is CN1CCc2nc3ccccc3c(NCCCn3ccnc3[N+](=O)[O-])c2C1 [MeN-THNLA-1, hydrochloride]
result: 426

query: For the compound Cl.O=[N+]([O-])c1nccn1CCCNc1c2ccccc2nc2ccccc12 [NLA-1, hydrochloride, reference compound] , what IC50 at 1 h is on record?
result: 84

query: Look up IC50 at 1 h: O=[N+]([O-])c1nccn1CCCNc1c2c(nc3ccccc13)CCC2 [NLCPQ-1, hydrochloride]
result: 170

query: Query: IC50 at 1 h; subject: O=[N+]([O-])c1nccn1CCCNc1c2c(nc3ccccc13)CCSC2 [S-THNLA-1, hydrochloride]
result: 580
